test system: 317291-083-R-J1-PDC complex spheroid growth; test: Anticancer human tumor 317291-083-R-J1-PDC patient-derived soft tissue sarcoma cell line growth inhibition [Asc]; details: second compound 10 µM; first compound 10 µM; hits give low values
Property Name: viability, T/C (%)

[[record]]
compound = "C#Cc1c(F)ccc2cc(O)cc(-c3ncc4c(N5CC6CCC(C5)N6)nc(OCC56CCCN5CC(F)C6)nc4c3F)c12 (centres undefined) + Cc1c(S(C)(=O)=O)c(-c2cc(F)cc(N3CCN(c4ccc(NS(=O)(=O)c5ccc(NC(CCN6CCC(C(=O)OCCCP(=O)(O)O)CC6)CSc6ccccc6)c(S(=O)(=O)C(F)(F)F)c5)cc4)CC3)c2)c(-c2ccc(Cl)cc2)n1C(C)C"
recorded_measurement = 49.1

[[record]]
compound = "O=C(c1cc(Cc2n[nH]c(=O)c3ccccc23)ccc1F)N1CCN(C(=O)C2CC2)CC1 + Cc1c(S(C)(=O)=O)c(-c2cc(F)cc(N3CCN(c4ccc(NS(=O)(=O)c5ccc(NC(CCN6CCC(C(=O)OCCCP(=O)(O)O)CC6)CSc6ccccc6)c(S(=O)(=O)C(F)(F)F)c5)cc4)CC3)c2)c(-c2ccc(Cl)cc2)n1C(C)C"
recorded_measurement = 28.9

[[record]]
compound = "C=CC(=O)N1CCN(c2nc(=O)n(-c3c(C)ccnc3C(C)C)c3nc(-c4c(O)cccc4F)c(F)cc23)C(C)C1 (centres undefined) + Cc1c(S(C)(=O)=O)c(-c2cc(F)cc(N3CCN(c4ccc(NS(=O)(=O)c5ccc(NC(CCN6CCC(C(=O)OCCCP(=O)(O)O)CC6)CSc6ccccc6)c(S(=O)(=O)C(F)(F)F)c5)cc4)CC3)c2)c(-c2ccc(Cl)cc2)n1C(C)C"
recorded_measurement = 47.9

[[record]]
compound = "C=C(F)C(=O)N1CCN(c2nc(OCC3CCCN3C)nc3c2CCN(c2cccc4cccc(Cl)c24)C3)CC1CC#N (centres undefined) + Cc1c(S(C)(=O)=O)c(-c2cc(F)cc(N3CCN(c4ccc(NS(=O)(=O)c5ccc(NC(CCN6CCC(C(=O)OCCCP(=O)(O)O)CC6)CSc6ccccc6)c(S(=O)(=O)C(F)(F)F)c5)cc4)CC3)c2)c(-c2ccc(Cl)cc2)n1C(C)C"
recorded_measurement = 0.29


====

tested on: 317291-083-R-J1-PDC complex spheroid growth; assay: Anticancer human tumor 317291-083-R-J1-PDC cell line growth inhibition [Asc]; conditions: second compound 3 µM; first compound 0.0316 µM; hits give low values;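 also: compound exposure lasted seven days after spheroids formed for three days; 100% = DMSO vehicle control wells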
# note: exactly 70% is not below, so it is no; use yes for viability, T/C strictly under it

[[record]]
compound = "COc1c(OCCCN2CCOCC2)ccc2c3n(c(=NC(=O)c4cnc(N)nc4)nc12)CCN3 + CCN1C(C(=O)NC23CCC(C(=O)O)(CC2)CC3)C(c2cccc(Cl)c2F)C2(C(=O)Nc3cc(Cl)ccc32)C12CCCCC2"
qualitative_label = "no"

[[record]]
compound = "C#Cc1c(F)ccc2cc(O)cc(-c3ncc4c(N5CC6CCC(C5)N6)nc(OCC56CCCN5CC(F)C6)nc4c3F)c12 (stereo not given) + CCN1C(C(=O)NC23CCC(C(=O)O)(CC2)CC3)C(c2cccc(Cl)c2F)C2(C(=O)Nc3cc(Cl)ccc32)C12CCCCC2"
qualitative_label = "no"

[[record]]
compound = "C=C(F)C(=O)N1CCN(c2nc(OCC3CCCN3C)nc3c2CCN(c2cccc4cccc(Cl)c24)C3)CC1CC#N (stereo not given) + CCN1C(C(=O)NC23CCC(C(=O)O)(CC2)CC3)C(c2cccc(Cl)c2F)C2(C(=O)Nc3cc(Cl)ccc32)C12CCCCC2"
qualitative_label = "no"

[[record]]
compound = "NC1CCC(NC2CC2c2ccccc2)CC1 (stereo not given) + CCN1C(C(=O)NC23CCC(C(=O)O)(CC2)CC3)C(c2cccc(Cl)c2F)C2(C(=O)Nc3cc(Cl)ccc32)C12CCCCC2"
qualitative_label = "no"

[[record]]
compound = "CNC(C)C(=O)NC1CN(S(=O)(=O)c2cccc(S(=O)(=O)N3CCC4CCC(C(=O)NC(c5ccccc5)c5ccccc5)N4C(=O)C(NC(=O)C(C)NC)C3)c2)CCC2CCC(C(=O)NC(c3ccccc3)c3ccccc3)N2C1=O (stereo not given) + CCN1C(C(=O)NC23CCC(C(=O)O)(CC2)CC3)C(c2cccc(Cl)c2F)C2(C(=O)Nc3cc(Cl)ccc32)C12CCCCC2"
qualitative_label = "yes"

[[record]]
compound = "O=C(c1ccc(F)c(F)c1Nc1ccc(I)cc1F)N1CC(O)([C@@H]2CCCCN2)C1 + CCN1C(C(=O)NC23CCC(C(=O)O)(CC2)CC3)C(c2cccc(Cl)c2F)C2(C(=O)Nc3cc(Cl)ccc32)C12CCCCC2"
qualitative_label = "no"

[[record]]
compound = "CCN1CCN(Cc2ccc(Nc3ncc(F)c(-c4cc(F)c5nc(C)n(C(C)C)c5c4)n3)nc2)CC1 + CCN1C(C(=O)NC23CCC(C(=O)O)(CC2)CC3)C(c2cccc(Cl)c2F)C2(C(=O)Nc3cc(Cl)ccc32)C12CCCCC2"
qualitative_label = "no"

[[record]]
compound = "Cn1ncnc1[C@H]1c2n[nH]c(=O)c3cc(F)cc(c23)N[C@@H]1c1ccc(F)cc1 + CCN1C(C(=O)NC23CCC(C(=O)O)(CC2)CC3)C(c2cccc(Cl)c2F)C2(C(=O)Nc3cc(Cl)ccc32)C12CCCCC2"
qualitative_label = "yes"

[[record]]
compound = "O=C(c1cc(Cc2n[nH]c(=O)c3ccccc23)ccc1F)N1CCN(C(=O)C2CC2)CC1 + CCN1C(C(=O)NC23CCC(C(=O)O)(CC2)CC3)C(c2cccc(Cl)c2F)C2(C(=O)Nc3cc(Cl)ccc32)C12CCCCC2"
qualitative_label = "no"


Provenance of the data: PubChem BioAssay AID1963427
